Reference source for all entries: patent US20240391954A1

# pEC50 per entry
- testedSystem: human MC3R (Homo sapiens, UniProt P41968)
- Construct: expressed in transfected cells; host or cells: HEK-293 cells stably expressing the GScAMP22F split-luciferase cAMP sensor (parent reporter line from Promega); MC3R clone generated in-house, G418 selection
- Sequence (P41968 whole entry): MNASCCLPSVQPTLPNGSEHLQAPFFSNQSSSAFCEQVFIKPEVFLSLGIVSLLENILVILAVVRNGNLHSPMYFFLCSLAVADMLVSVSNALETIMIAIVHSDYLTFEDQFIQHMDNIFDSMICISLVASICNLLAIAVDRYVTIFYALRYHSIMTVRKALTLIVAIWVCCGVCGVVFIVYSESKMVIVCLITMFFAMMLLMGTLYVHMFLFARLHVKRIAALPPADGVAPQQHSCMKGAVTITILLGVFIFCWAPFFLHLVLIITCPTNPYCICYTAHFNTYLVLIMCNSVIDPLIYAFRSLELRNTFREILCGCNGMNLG
- methodSummary: split-luciferase cAMP sensor assay, agonist mode (measurement window 1), hMC3R
- Assay type: cell-based
- assayConditions: agonist mode, hMC3R stable cell line; read-out: MC3R cAMP EC50
Positions of bridges follow the written chain, without caps; N, C: chain ends. Non-standard residues stand in square brackets, D forms with d. Residues, ends and D or L forms follow the SMILES beside them. Phe(4-Br) = N[C@@H](Cc1ccc(Br)cc1)C(=O)O; dPhe(4-Br) = N[C@H](Cc1ccc(Br)cc1)C(=O)O
The quantity pEC50 is defined as the negative base-10 logarithm of the molar concentration.

Which pEC50 value belongs to COc1ccc(C[C@H]2NC(=O)[C@H](CCCNC(=N)N)NC(=O)CNC(=O)[C@@H](NC(C)=O)CSSC[C@@H](C(N)=O)NC(=O)[C@H](Cc3ccccc3)NC(=O)[C@H](CCCNC(=N)N)NC2=O)cc1 [CTX-1641] (Ac-CGR[dY](Me)RFC-NH2; disulfide 1-7) ?
7.28

Another molecule: CC(=O)N[C@@H](CCCNC(=N)N)C(=O)N[C@H]1CSSC[C@@H](C(=O)N[C@@H](CCCNC(=N)N)C(=O)N[C@@H](Cc2ccccc2)C(=O)NCC(=O)O)NC(=O)[C@@H](Cc2c[nH]c3ccccc23)NC(=O)[C@H](CCCNC(=N)N)NC(=O)[C@@H](Cc2ccc(Br)cc2)NC(=O)[C@H](CCCNC(=N)N)NC(=O)[C@@H](C)NC1=O [CTX-1219] (Ac-RC[dA]R[dPhe(4-Br)]R[dW]CRFG-OH; disulfide 2-8 (inferred))
8.35

Repeat for the following molecule: CC(=O)N[C@@H](CCCNC(=N)N)C(=O)N[C@H]1CSSC[C@@H](C(N)=O)NC(=O)[C@H](Cc2c[nH]c3ccccc23)NC(=O)[C@H](CCCNC(=N)N)NC(=O)[C@H](Cc2ccc(Br)cc2)NC(=O)[C@H](CCCNC(=N)N)NC(=O)[C@@H](C)NC1=O [CTX-1212] (Ac-RC[dA]R[Phe(4-Br)]RWC-NH2; disulfide 2-8)
7.55
